All values here come from paper PMC10862539.

- Test system: P. falciparum
- Run Description: Drug sensitivity assay, P. falciparum (SYBR green I)
- Type: cell-based, Plasmodium falciparum
- Measurement Conditions: Plasmodium falciparum; iron-free compound; P. falciparum; 48 h; read-out: EC50 –Fe
Value Type: pEC50
Please express pEC50 as -log10 of the molar concentration.

Input line: Reported pEC50 for CC(=O)N(O)CCCCCNC(=O)CCC(=O)N(O)CCCCCNC(=O)CCC(=O)N(O)CCCCCN [DFO, Deferoxamine, reference compound] : what is it?
Output line: 4.90

###

- System: Human fibroblast BJ1
- Run Description: Drug sensitivity assay, human fibroblast BJ1 (CellTiter-Glo)
- Type: cell-based
- Measurement Conditions: pre-treated with equimolar iron; Human fibroblast BJ1; 48 h; read-out: EC50 +Fe
- Method: All organisms were cultivated according to the conditions summarized in Table S2, which also includes strain specifications. Dose–response curves were obtained by their cultivation on 96 well plates in a 2-fold series dilution of the appropriate drug, in a total volume of 200 μL (with the exception of P. falciparum, where the total volume was 100 μL). […] Selectivity was calculated as the ratio of the average EC50 value for human fibroblasts to the average EC50 value for the appropriate pathogen. […]
Value Type: EC50

Input line: EC50 of CC(=O)N(O)CCCCCNC(=O)CCC(=O)N(O)CCCCCNC(=O)CCC(=O)N(O)CCCCCN [DFO, Deferoxamine, reference compound] on Human fibroblast BJ1?
Output line: > 100 µM
